# Tested on: SR
# Assay procedure: Cytotoxicity against human SR cells assessed as cell growth at 0.01 uM after 48 hrs by sulforhodamine B assay relative to control
# Assay type: functional
# Stated conditions: read-out: Activity
Reported metric: growth at 0.01 µM
Enter the number, and then the unit.

# input I am curious: what growth at 0.01 µM value has been reported for COc1ccc(C(=O)/C=C/c2cc(-c3cc(OC)c(OC)c(OC)c3)n[nH]2)cc1 ?
# output 97%

# input Now consider COc1cc(-c2cc(/C=C/C(=O)c3ccc(Cl)c(Cl)c3)[nH]n2)cc(OC)c1OC .
# output 104%

# input Now the molecule COc1cc2c(cc1OC)C(=O)/C(=C/c1cc(-c3ccc4c(c3)OCO4)n[nH]1)C2
# output 97%

# input Also COc1cc(-c2cc(/C=C/C(=O)c3ccc(F)c(F)c3)[nH]n2)cc(OC)c1OC , if possible.
# output 100%

# input And COc1ccc(-c2cc(/C=C/C(=O)c3ccc(OC)c(OC)c3)[nH]n2)cc1 ?
# output 100%

----------
# Test system: HT-29
# Assay procedure: Cytotoxicity against human HT-29 cells assessed as cell growth at 0.01 uM after 48 hrs by sulforhodamine B assay relative to control
# Assay type: functional
# Stated conditions: HT-29, 48 h, read-out: Activity
Reported metric: growth at 0.01 µM (%)
Return type: number; implicit unit %.

# input Could you share which growth at 0.01 µM value was measured for COc1cc(-c2cc(/C=C/C(=O)c3ccc(N)cc3)[nH]n2)cc(OC)c1OC ?
# output 98

# input What about COc1cc(-c2cc(/C=C/C(=O)c3ccc(F)c(F)c3)[nH]n2)cc(OC)c1OC ?
# output 104

# input Consider next the compound COc1cc2c(cc1OC)C(=O)/C(=C/c1cc(-c3ccc4c(c3)OCO4)n[nH]1)C2 in the same way.
# output 98

# input Do the same for COc1ccc(-c2cc(/C=C/C(=O)c3ccc(N)cc3)[nH]n2)cc1 please
# output 97

----------
Could you please report measured growth at 0.1 µM for the items listed next?
# Tested on: Malme-3M
# Assay procedure: Cytotoxicity against human MALME-3M cells assessed as cell growth at 0.1 uM after 48 hrs by sulforhodamine B assay relative to control
# Assay type: functional
# Stated conditions: read-out: Activity
Reply with the number, then its unit.

# input Need growth at 0.1 µM, item COc1ccc(C(=O)/C=C/c2cc(-c3cc(OC)c(OC)c(OC)c3)n[nH]2)cc1OC
# output 92%

# input Ok, now COc1cc(-c2cc(/C=C/C(=O)c3ccc(F)c(F)c3)[nH]n2)cc(OC)c1OC
# output 90%

# input Field entry: COc1cc(-c2cc(/C=C/C(=O)c3ccc(N)cc3)[nH]n2)cc(OC)c1OC
# output 102%

# input And what about the compound COc1ccc(-c2cc(/C=C/C(=O)c3ccc(OC)c(OC)c3)[nH]n2)cc1 ?
# output 89%

# input Check COc1cc(C(=O)/C=C/c2cc(-c3cc(OC)c(OC)c(OC)c3)n[nH]2)cc(OC)c1OC too.
# output 101%

# input Now consider COc1cc(C(=O)/C=C/c2cc(-c3ccc4c(c3)OCO4)n[nH]2)cc(OC)c1OC and answer again.
# output 83%

# input // repeat for COc1cc(-c2cc(/C=C/C(=O)c3ccc(Cl)c(Cl)c3)[nH]n2)cc(OC)c1OC and report
# output 95%

----------
For each entry below, report its growth at 100 µM value.
# Tested on: KM12
# Assay procedure: Cytotoxicity against human KM12 cells assessed as cell growth at 100 uM after 48 hrs by sulforhodamine B assay relative to control
# Type: functional
# Stated conditions: KM12, 48 h, read-out: Activity

# input Fill in the blank: the reported growth at 100 µM of COc1cc(-c2cc(/C=C/C(=O)c3ccc(F)c(F)c3)[nH]n2)cc(OC)c1OC is ____.
# output -48%

# input Another molecule to check: COc1cc(C(=O)/C=C/c2cc(-c3cc(OC)c(OC)c(OC)c3)n[nH]2)cc(OC)c1OC
# output -81%

# input One more molecule: COc1cc(-c2cc(/C=C/C(=O)c3ccc(N)cc3)[nH]n2)cc(OC)c1OC
# output -79%

# input Quick one: COc1cc2c(cc1OC)C(=O)/C(=C/c1cc(-c3ccc4c(c3)OCO4)n[nH]1)C2
# output -80%

# input And the next one, COc1ccc(C(=O)/C=C/c2cc(-c3ccc4c(c3)OCO4)n[nH]2)cc1OC ?
# output -90%

----------
# Test system: NCI-H460
# Assay procedure: Cytotoxicity against human NCI-H460 cells assessed as cell growth at 100 uM after 48 hrs by sulforhodamine B assay relative to control
# Assay type: functional
# Stated conditions: NCI-H460, 48 h, read-out: Activity
Could you please report measured growth at 100 µM for the items listed next?
Supply the numeric figure in %, leaving out any unit text.

# input Consider the molecule COc1ccc(C(=O)/C=C/c2cc(-c3ccc4c(c3)OCO4)n[nH]2)cc1OC and give its measured growth at 100 µM.
# output -81

# input Next: COc1cc(-c2cc(/C=C/C(=O)c3ccc4c(c3)OCO4)[nH]n2)cc(OC)c1OC
# output -34

# input Could you do the same for COc1ccc(-c2cc(/C=C/C(=O)c3ccc(N)cc3)[nH]n2)cc1 , please?
# output -70

# input Item: COc1cc(-c2cc(/C=C/C(=O)c3ccc(N)cc3)[nH]n2)cc(OC)c1OC
# output -59

----------
Hi there, I'd appreciate the recorded growth at 10 µM for every entry that follows.
# System: OVCAR-8
# Assay procedure: Cytotoxicity against human OVCAR8 cells assessed as cell growth at 10 uM after 48 hrs by sulforhodamine B assay relative to control
# Type: functional
# Stated conditions: OVCAR-8, 48 h, read-out: Activity
Report as a plain number; the unit % is understood.

# input Look up growth at 10 µM with OVCAR-8 for this molecule: COc1ccc(C(=O)/C=C/c2cc(-c3cc(OC)c(OC)c(OC)c3)n[nH]2)cc1OC
# output -89

# input Now consider COc1cc(-c2cc(/C=C/C(=O)c3ccc(N)cc3)[nH]n2)cc(OC)c1OC .
# output -1

# input Next molecule: COc1ccc(C(=O)/C=C/c2cc(-c3ccc4c(c3)OCO4)n[nH]2)cc1OC
# output -27

----------
# Tested on: SK-MEL-28
# Assay procedure: Cytotoxicity against human SK-MEL-28 cells assessed as cell growth at 0.01 uM after 48 hrs by sulforhodamine B assay relative to control
# Assay type: functional
# Stated conditions: SK-MEL-28, 48 h, read-out: Activity
Reported metric: growth at 0.01 µM
Phrase the answer as number then unit, nothing more needed.

# input Reported growth at 0.01 µM for COc1cc(-c2cc(/C=C/C(=O)c3ccc4c(c3)OCO4)[nH]n2)cc(OC)c1OC : what is it?
# output 100%

# input What would you report for COc1cc(-c2cc(/C=C/C(=O)c3ccc(F)c(F)c3)[nH]n2)cc(OC)c1OC ?
# output 102%

# input Query COc1cc(C(=O)/C=C/c2cc(-c3cc(OC)c(OC)c(OC)c3)n[nH]2)cc(OC)c1OC next
# output 101%

# input Please do the same for COc1cc(-c2cc(/C=C/C(=O)c3ccc(Cl)c(Cl)c3)[nH]n2)cc(OC)c1OC as well.
# output 108%

# input For COc1ccc(-c2cc(/C=C/C(=O)c3cc(OC)c(OC)c(OC)c3)[nH]n2)cc1OC then?
# output 95%

# input Would you mind doing COc1ccc(-c2cc(/C=C/C(=O)c3ccc(OC)c(OC)c3)[nH]n2)cc1 as well?
# output 101%

----------
Task for the reader: assign each of the following compounds its reported growth at 10 µM.
# System: BT-549
# Assay procedure: Cytotoxicity against human BT549 cells assessed as cell growth at 10 uM after 48 hrs by sulforhodamine B assay relative to control
# Assay type: functional
# Stated conditions: BT-549, 48 h, read-out: Activity
All answers are understood in %, so give the number only.

# input May I ask what growth at 10 µM has been recorded for COc1cc2c(cc1OC)C(=O)/C(=C/c1cc(-c3ccc4c(c3)OCO4)n[nH]1)C2 ?
# output -94

# input Repeat with COc1cc(-c2cc(/C=C/C(=O)c3ccc(N)cc3)[nH]n2)cc(OC)c1OC
# output -89

# input Next record, please: COc1ccc(-c2cc(/C=C/C(=O)c3ccc(N)cc3)[nH]n2)cc1OC
# output -91

# input What do you have for COc1ccc(C(=O)/C=C/c2cc(-c3ccc4c(c3)OCO4)n[nH]2)cc1OC ?
# output -57

----------
# System: M14
# Assay procedure: Cytotoxicity against human M14 cells assessed as cell growth at 0.01 uM after 48 hrs by sulforhodamine B assay relative to control
# Format: functional
# Stated conditions: M14, 48 h, read-out: Activity
Reported metric: growth at 0.01 µM
Your reply should be a number followed by the unit it is expressed in.

# input Param item = COc1ccc(C(=O)/C=C/c2cc(-c3cc(OC)c(OC)c(OC)c3)n[nH]2)cc1 ; retrieve measured growth at 0.01 µM.
# output 100%

# input Next entry: COc1ccc(-c2cc(/C=C/C(=O)c3ccc(OC)c(OC)c3)[nH]n2)cc1
# output 101%

# input Same question for COc1ccc(C(=O)/C=C/c2cc(-c3ccc(OC)c(OC)c3)n[nH]2)cc1OC please.
# output 89%

# input What would you report for COc1cc(C(=O)/C=C/c2cc(-c3cc(OC)c(OC)c(OC)c3)n[nH]2)cc(OC)c1OC ?
# output 96%

# input Cool, now COc1ccc(-c2cc(/C=C/C(=O)c3ccc(N)cc3)[nH]n2)cc1
# output 102%

# input Moving on to the next compound: COc1ccc(-c2cc(/C=C/C(=O)c3cc(OC)c(OC)c(OC)c3)[nH]n2)cc1OC
# output 96%
